system: MCF7 multi-cell spheroids with HUVEC/MSC, viability; test: Anticancer human tumor MCF7 cell line growth inhibition [IpAb]; details: second compound 0.316 µM; first compound 3.16 µM; active means viability on the fitted dose curve at most 10% of control; inactive means the rest;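 further: spheroids exposed to agents for seven days before readout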
Could you please pick one outcome from this set? active, inactive

Cn1ncc(Cl)c1-c1cc(C(=O)NC(CN)Cc2cccc(F)c2)sc1Cl (stereo not given) + CCN1CCN(Cc2ccc(Nc3ncc(F)c(-c4cc(F)c5nc(C)n(C(C)C)c5c4)n3)nc2)CC1 : active
Cn1nccc1Nc1nccc(-c2ccn(C(CO)c3ccc(Cl)c(F)c3)c(=O)c2)n1 (stereo not given) + CC(C)NCC(C(=O)N1CCN(c2ncnc3c2C(C)CC3O)CC1)c1ccc(Cl)cc1 : inactive
Cc1nc(NC(=O)N2CCCC2C(N)=O)sc1-c1ccnc(C(C)(C)C(F)(F)F)c1 (stereo not given) + CCN1CCN(Cc2ccc(Nc3ncc(F)c(-c4cc(F)c5nc(C)n(C(C)C)c5c4)n3)nc2)CC1 : inactive
Cn1nccc1Nc1nccc(-c2ccn(C(CO)c3ccc(Cl)c(F)c3)c(=O)c2)n1 (stereo not given) + CCN1CCN(Cc2ccc(Nc3ncc(F)c(-c4cc(F)c5nc(C)n(C(C)C)c5c4)n3)nc2)CC1 : inactive

stdin: Check the results log: what was the call for C=CC(=O)N1CCN(c2nc(=O)n(-c3c(C)ccnc3C(C)C)c3nc(-c4c(O)cccc4F)c(F)cc23)C(C)C1 (stereo not given) + CCN1CCN(Cc2ccc(Nc3ncc(F)c(-c4cc(F)c5nc(C)n(C(C)C)c5c4)n3)nc2)CC1 ?
stdout: inactive

---

system: MCF7 multi-cell spheroids with HUVEC/MSC, viability; assay: Anticancer human tumor MCF7 cell line growth inhibition [IpAb]; details: curve of first compound; second compound 0.316 µM;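 further: spheroids exposed to agents for seven days before readout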
MEASUREMENT_KIND: pIC50
// returns pIC50 (minus log10 of molar concentration), number only

CC(C)(C)c1cnc(CSc2cnc(NC(=O)C3CCNCC3)s2)o1 + CC(C)NCC(C(=O)N1CCN(c2ncnc3c2C(C)CC3O)CC1)c1ccc(Cl)cc1 : 7.06

stdin: Input Cn1ncc(Cl)c1-c1cc(C(=O)NC(CN)Cc2cccc(F)c2)sc1Cl (stereo not given) + CCN1CCN(Cc2ccc(Nc3ncc(F)c(-c4cc(F)c5nc(C)n(C(C)C)c5c4)n3)nc2)CC1 , output reported pIC50.
stdout: 5.88

---

test system: MCF7 multi-cell spheroids with HUVEC/MSC, viability; assay: Anticancer human tumor MCF7 cell line growth inhibition [IpAb]; conditions: second compound 0.1 µM; first compound 0.001 µM; stronger effect = lower value;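 further: spheroids exposed to agents for seven days before readout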
MEASUREMENT_KIND: viability, T/C (%)
I only need the number, in %, no unit after it.

Cn1ncnc1[C@H]1c2n[nH]c(=O)c3cc(F)cc(c23)N[C@@H]1c1ccc(F)cc1 + CCN1CCN(Cc2ccc(Nc3ncc(F)c(-c4cc(F)c5nc(C)n(C(C)C)c5c4)n3)nc2)CC1 : 103
CC(C)n1nc(-c2ccc3oc(N)nc3c2)c2c(N)ncnc21 + CCN1CCN(Cc2ccc(Nc3ncc(F)c(-c4cc(F)c5nc(C)n(C(C)C)c5c4)n3)nc2)CC1 : 94

stdin: Print MCF7 multi-cell spheroids with HUVEC/MSC, viability viability, T/C for Cn1ncnc1[C@H]1c2n[nH]c(=O)c3cc(F)cc(c23)N[C@@H]1c1ccc(F)cc1 + CC(C)NCC(C(=O)N1CCN(c2ncnc3c2C(C)CC3O)CC1)c1ccc(Cl)cc1 .
stdout: 92.8

stdin: Given CC(C)n1nc(-c2ccc3oc(N)nc3c2)c2c(N)ncnc21 + CC(C)NCC(C(=O)N1CCN(c2ncnc3c2C(C)CC3O)CC1)c1ccc(Cl)cc1 , report its viability, T/C on MCF7 multi-cell spheroids with HUVEC/MSC, viability.
stdout: 92.6

---

tested on: MCF7 multi-cell spheroids with HUVEC/MSC, viability; assay: Anticancer human tumor MCF7 cell line growth inhibition [IpAb]; conditions: second compound 1 µM; first compound 3 µM; stronger effect = lower value;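 further: spheroids exposed to agents for seven days before readout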
Listing: viability, T/C of selected compounds
Field format: number, assumed %, no unit text.

CC(C)(C)c1cnc(CSc2cnc(NC(=O)C3CCNCC3)s2)o1 + CC(C)NCC(C(=O)N1CCN(c2ncnc3c2C(C)CC3O)CC1)c1ccc(Cl)cc1 : 28.9
Cn1cnc2c(F)c(Nc3ccc(Br)cc3Cl)c(C(=O)NOCCO)cc21 + CC(C)NCC(C(=O)N1CCN(c2ncnc3c2C(C)CC3O)CC1)c1ccc(Cl)cc1 : 44.7
Cn1cnc2c(F)c(Nc3ccc(Br)cc3Cl)c(C(=O)NOCCO)cc21 + CCN1CCN(Cc2ccc(Nc3ncc(F)c(-c4cc(F)c5nc(C)n(C(C)C)c5c4)n3)nc2)CC1 : 88.5

stdin: Report viability, T/C under test system MCF7 multi-cell spheroids with HUVEC/MSC, viability for CC(C)(C)c1cnc(CSc2cnc(NC(=O)C3CCNCC3)s2)o1 + CCN1CCN(Cc2ccc(Nc3ncc(F)c(-c4cc(F)c5nc(C)n(C(C)C)c5c4)n3)nc2)CC1 .
stdout: 32

---

System: MCF7 multi-cell spheroids with HUVEC/MSC, viability
Experiment: Anticancer human tumor MCF7 cell line growth inhibition [IpAb];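 further: spheroids exposed to agents for seven days before readout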
Conditions: second compound 1 µM; first compound 0.3 µM; stronger effect = lower value
Method: Combinatorial screen of targeted agents with ipatasertib and abemaciclib in multi-cell type tumor spheroids […] Compounds. […] If the clinical Cmax for an agent had not been determined, the highest concentration tested was 10 microM. NCI60 Cell Culture. […] The optimal seeding densities for each of the cell lines at each time point assessed were determined prior to performing the concentration response studies. […]
Reported viability, T/C values follow for various compounds
Report only the number, with the unit % understood.

Cn1cnc2c(F)c(Nc3ccc(Br)cc3Cl)c(C(=O)NOCCO)cc21 + CCN1CCN(Cc2ccc(Nc3ncc(F)c(-c4cc(F)c5nc(C)n(C(C)C)c5c4)n3)nc2)CC1 : 95.5
CC(=O)c1c(C)c2cnc(Nc3ccc(N4CCNCC4)cn3)nc2n(C2CCCC2)c1=O + CC(C)NCC(C(=O)N1CCN(c2ncnc3c2C(C)CC3O)CC1)c1ccc(Cl)cc1 : 49.9

Consider the record given below.
stdin: Provide one value: measured viability, T/C of CC(C)(C)c1cnc(CSc2cnc(NC(=O)C3CCNCC3)s2)o1 + CCN1CCN(Cc2ccc(Nc3ncc(F)c(-c4cc(F)c5nc(C)n(C(C)C)c5c4)n3)nc2)CC1
stdout: 22.8

---

test system: MCF7 multi-cell spheroids with HUVEC/MSC, viability; experiment: Anticancer human tumor MCF7 cell line growth inhibition [IpAb]; conditions: second compound 0.316 µM; first compound 0.00316 µM; stronger effect = lower value;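 further: spheroids exposed to agents for seven days before readout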
# y = viability, T/C below 90% (exclusive); n = viability, T/C at/above 90%

Field: example entries. Status: answers known.
COc1c(OCCCN2CCOCC2)ccc2c3n(c(=NC(=O)c4cnc(N)nc4)nc12)CCN3 + CC(C)NCC(C(=O)N1CCN(c2ncnc3c2C(C)CC3O)CC1)c1ccc(Cl)cc1 : y
CC(C)n1nc(-c2ccc3oc(N)nc3c2)c2c(N)ncnc21 + CC(C)NCC(C(=O)N1CCN(c2ncnc3c2C(C)CC3O)CC1)c1ccc(Cl)cc1 : y
CC(C)n1nc(-c2ccc3oc(N)nc3c2)c2c(N)ncnc21 + CCN1CCN(Cc2ccc(Nc3ncc(F)c(-c4cc(F)c5nc(C)n(C(C)C)c5c4)n3)nc2)CC1 : y
Cn1ncnc1[C@H]1c2n[nH]c(=O)c3cc(F)cc(c23)N[C@@H]1c1ccc(F)cc1 + CC(C)NCC(C(=O)N1CCN(c2ncnc3c2C(C)CC3O)CC1)c1ccc(Cl)cc1 : y
COc1c(OCCCN2CCOCC2)ccc2c3n(c(=NC(=O)c4cnc(N)nc4)nc12)CCN3 + CCN1CCN(Cc2ccc(Nc3ncc(F)c(-c4cc(F)c5nc(C)n(C(C)C)c5c4)n3)nc2)CC1 : n

Then this compound:
stdin: Strictly below 90%: is that where viability, T/C of Cn1ncnc1[C@H]1c2n[nH]c(=O)c3cc(F)cc(c23)N[C@@H]1c1ccc(F)cc1 + CCN1CCN(Cc2ccc(Nc3ncc(F)c(-c4cc(F)c5nc(C)n(C(C)C)c5c4)n3)nc2)CC1 sits?
stdout: n

---

test system: MCF7 multi-cell spheroids with HUVEC/MSC, viability; test: Anticancer human tumor MCF7 cell line growth inhibition [IpAb]; details: second compound 0.1 µM; first compound 0.0949 µM; stronger effect = lower value;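 further: spheroids exposed to agents for seven days before readout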
Friendly reminder: viability, T/C below 90% is fulfilled, at or above is not fulfilled.

# example entries with known answers
Cn1cnc2c(F)c(Nc3ccc(Br)cc3Cl)c(C(=O)NOCCO)cc21 + CCN1CCN(Cc2ccc(Nc3ncc(F)c(-c4cc(F)c5nc(C)n(C(C)C)c5c4)n3)nc2)CC1 : not fulfilled
CC(C)(C)c1cnc(CSc2cnc(NC(=O)C3CCNCC3)s2)o1 + CC(C)NCC(C(=O)N1CCN(c2ncnc3c2C(C)CC3O)CC1)c1ccc(Cl)cc1 : fulfilled
CC(=O)c1c(C)c2cnc(Nc3ccc(N4CCNCC4)cn3)nc2n(C2CCCC2)c1=O + CCN1CCN(Cc2ccc(Nc3ncc(F)c(-c4cc(F)c5nc(C)n(C(C)C)c5c4)n3)nc2)CC1 : not fulfilled

stdin: Please check: viability, T/C for CC(C)(C)c1cnc(CSc2cnc(NC(=O)C3CCNCC3)s2)o1 + CCN1CCN(Cc2ccc(Nc3ncc(F)c(-c4cc(F)c5nc(C)n(C(C)C)c5c4)n3)nc2)CC1 , strictly under 90% or not?
stdout: fulfilled
